Let's look at some compounds and their measured pIC50.
system under test: UniProt O15382
Sequence (O15382 whole entry): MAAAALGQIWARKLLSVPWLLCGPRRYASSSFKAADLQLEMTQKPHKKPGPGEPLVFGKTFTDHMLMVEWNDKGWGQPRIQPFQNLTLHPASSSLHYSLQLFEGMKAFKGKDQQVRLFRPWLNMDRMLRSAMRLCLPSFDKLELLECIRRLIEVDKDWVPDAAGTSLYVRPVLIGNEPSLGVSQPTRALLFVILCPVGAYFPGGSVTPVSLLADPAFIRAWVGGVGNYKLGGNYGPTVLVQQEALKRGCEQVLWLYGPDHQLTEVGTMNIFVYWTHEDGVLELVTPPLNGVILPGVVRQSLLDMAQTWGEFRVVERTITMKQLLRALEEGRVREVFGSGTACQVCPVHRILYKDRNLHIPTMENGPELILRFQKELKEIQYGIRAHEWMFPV
pIC50: −log10 of the molar value.

INSERT INTO measurements (compound, observable, result) VALUES
  ('Cc1ccc(NC(=O)c2sc3nc[nH]c(=O)c3c2C)cc1', 'pIC50', '< 4.20'),
  ('O=C(O)Cc1noc2ccccc12', 'pIC50', '< 2.90'),
  ('Cc1c(C(=O)NC2CCCC2)sc2ncn(C)c(=O)c12', 'pIC50', '< 4.20'),
  ('Cc1c(C(=O)Nc2ccccc2S(C)(=O)=O)sc2nc[nH]c(=O)c12', 'pIC50', '< 4.20');

According to the records, this compound O=C(CO)NC1CCCc2ccccc21 (stereo unspecified) displays pIC50 of < 2.90

According to the records, this compound O=C(Nc1ccccc1)c1ccccc1 [N-PHENYLBENZAMIDE] displays pIC50 of < 3.20
